Assay Protocol: resazurin metabolic signal in A549 cells – cell-based, resazurin fluorescence, 24 h, PK04 Diversity Set, profiling panel (AID 1171); further: test concentration not given here
Condition Set: A549 viability, higher = more signal, called active from +8 up or from −8 down
Readout Name: z-score

>>> df
                                   compound  readout_name  measured_value
0  C=C(C)[C@@H]1CC=C(C(O)C2C=CC3C(=O)N(Cc4ccccc4)C(=O)C3N2n2cnnc2)CC1 (stereo not given in full)       z-score           0.159
1                     C[n+]1ccc2ccc(O)cc2c1       z-score          -0.733
2  CN(C)CCCC[C@@H]1NC(=O)[C@@H]2C[C@H](C(=O)NCCCCCCN)[C@H](c3ccc(O)cc3)N2C1=O       z-score           0.291
3               O=c1cccc(-c2ccc3ccccc3c2)o1       z-score          -0.223
4  COC(=O)[C@@]1(Cc2ccc(OC)cc2)[C@H]2c3cc(C(=O)N4CCCC4)n(CCc4ccccn4)c3C[C@H]2CN1C(=O)c1ccccc1       z-score          -0.201
